# System: KG-1
# measurement-description: Antiproliferative activity against human KG1 cells
# Type: functional, cell-based
# recorded-conditions: kg-1
Rule: measured EC50 below 90 nM gets satisfied; anything equal to or greater than 90 nM gets not satisfied.

>>> print(df.to_string())
                                   compound   answer_label
0  NC(=O)c1cc(Cl)c2c(Cl)c(C#CC3CNCCO3)n([C@H]3CCCNC3)c2n1 (stereo in doubt; 29b)  not satisfied
1  NC(=O)c1cc(Cl)c2c(Cl)c(C#CC3COCCO3)n([C@H]3CCCNC3)c2n1 (stereo in doubt; 22a)      satisfied
2  NC(=O)c1cc(Cl)c2c(Cl)c(C#CC3CCCO3)n([C@H]3CCCNC3)c2n1 (stereo in doubt; 20a)  not satisfied

Input line: Confirm or reject: EC50 of NC(=O)c1cc(Cl)c2c(Cl)c(C#CC3COCCO3)n([C@H]3CCCNC3)c2n1 (stereo in doubt; 22b) lies strictly below 90 nM
Output line: not satisfied
